src = patent US8846719B2

target: human GABA A receptor α5β3γ2 (Homo sapiens (Human), UniProt P18507+P31644); test: [3H]flumazenil competition binding assay, human GABA A α5β3γ2 receptors expressed in HEK293 cells; conditions: human receptor; displacement of [3H]flumazenil (0.5 nM); means of two determinations; read-out: hKi GABAAa5
pKi: −log10 of the molar value.
REPORTED_PROPERTY: pKi

Below, each entry is followed by its recorded pKi result.
COMPOUND: Cc1onc(-c2ccc(F)cc2)c1CNc1ccc(C(=O)NC2CC2)cn1 [Example 176]
ASSAY_VALUE: 8.13

COMPOUND: Cc1onc(-c2ccc(F)cc2F)c1COc1ccc(C(=O)NC2CCOCC2)cn1 [Example 264]
ASSAY_VALUE: 8.64

COMPOUND: Cc1onc(-c2ccccc2)c1COc1ccc(C(=O)N[C@@H](Cc2ccccc2)C(=O)O)cn1 [Example 231]
ASSAY_VALUE: 7.55

COMPOUND: Cc1onc(-c2ccccc2)c1COc1ccc(C(=O)N2CCCn3nccc32)cn1 [Example 78]
ASSAY_VALUE: 7.39

[1] Cc1onc(-c2ccccc2)c1COc1ccc(C(=O)NCC(F)(F)F)cn1 [Example 12]
[2] Cc1onc(-c2cccnc2)c1COc1ccc(C(=O)NCC2CC2)cn1 [Example 156]
[3] Cc1onc(-c2ccccc2)c1COc1ccc(C(=O)NCCCCCCO)cn1 [Example 222]
[4] Cc1onc(-c2cc(F)ccc2F)c1COc1ccc(C(=O)NC2CCOCC2)cn1 [Example 266]
Ask: Rank ascending by pKi. Return value: ordered labels per request.
Result: 2, 3, 4, 1
